# TARGET_SYSTEM: DrTS (trehalose synthase) (Deinococcus radiodurans, UniProt I3NX86)
# Construct: full length, about 552 residues plus vector linkers (residues 1-5 disordered); pET-23a(+), Ni-NTA purified, E. coli BL21 (DE3); homodimer
# Sequence (I3NX86 1-552): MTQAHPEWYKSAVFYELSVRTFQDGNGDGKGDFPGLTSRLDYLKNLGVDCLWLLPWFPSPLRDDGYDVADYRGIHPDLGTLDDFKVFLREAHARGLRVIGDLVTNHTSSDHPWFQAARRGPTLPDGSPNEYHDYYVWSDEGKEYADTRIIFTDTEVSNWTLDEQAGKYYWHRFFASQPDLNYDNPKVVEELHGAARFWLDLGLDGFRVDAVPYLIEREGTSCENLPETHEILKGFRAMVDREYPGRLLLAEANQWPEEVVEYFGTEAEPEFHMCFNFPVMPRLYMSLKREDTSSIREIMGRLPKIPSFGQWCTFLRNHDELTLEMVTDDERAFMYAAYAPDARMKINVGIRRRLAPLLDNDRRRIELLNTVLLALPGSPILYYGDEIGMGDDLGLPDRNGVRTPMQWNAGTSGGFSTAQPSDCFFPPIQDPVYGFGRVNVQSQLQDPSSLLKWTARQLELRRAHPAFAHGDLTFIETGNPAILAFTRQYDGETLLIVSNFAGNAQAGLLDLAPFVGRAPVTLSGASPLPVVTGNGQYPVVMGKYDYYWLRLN
# TEST_NAME: isomerase assay (trehalose from maltose), HPLC with refractive-index detection
MEASURED_QUANTITY: IC50 (mM)
A number alone suffices; assume mM.

Input line: What value of IC50 has been recorded for this entry: NC(CO)(CO)CO
Output line: 4.88
